Known AC50 of a selection of molecules
Tested on: SUM149
PROTOCOL: Cytotoxicity assay (Version 2, automated, AC50) with/without neutrophil elastase
Assay type: cell-based
RUN_CONDITIONS: SUM149, without (−) neutrophil elastase, Version 2, activity concentration at −50%
RESULT_TYPE: AC50

1) CCCNC(=O)Nc1cccc(S(=O)(=O)Nc2cccc([C@@H](CC(=O)O)NC(=O)Nc3ccc(NC(=O)N(C)CCN(C)CCN(C)CC(=O)N[C@@H](CC(N)=O)C(=O)N4CCC[C@H]4C(=O)N[C@H](C(=O)N=S(C)(=O)Cc4cc5cc(c4)OC(C)CCOc4cc(F)ccc4-c4nc(ncc4F)N5)C(C)C)cc3)c2)c1 (relative stereo) [Compound 6] : ≤ 10 nM
2) CCCNC(=O)Nc1cccc(S(=O)(=O)Nc2cccc([C@@H](CC(=O)O)NC(=O)Nc3ccc(NC(=O)NCCOCCOCCOCCC(=O)NCCNC(=O)CC[C@H](NC(=O)CCCC(=O)NCCN(C)CCN(C)CCN(C)CC(=O)N[C@@H](CC(N)=O)C(=O)N4CCC[C@H]4C(=O)N[C@H](C(=O)N=[S@@](C)(=O)Cc4cc5cc(c4)OCCCCOc4cc(F)ccc4-c4nc(ncc4F)N5)C(C)C)C(=O)NCCNC(=O)CCOCCOCCOCCNC(=O)Nc4ccc(NC(=O)N[C@H](CC(=O)O)c5cccc(NS(=O)(=O)c6cccc(NC(=O)NCCC)c6)c5)cc4)cc3)c2)c1 [Compound 25] : 100 to 1000 nM
3) CCCNC(=O)Nc1cccc(S(=O)(=O)Nc2cccc([C@H](CC(=O)O)NC(=O)Nc3ccc(NC(=O)NCCN(C)CCN(C)CCN(C)CC(=O)N[C@@H](CC(N)=O)C(=O)N4CCC[C@H]4C(=O)N[C@H](C(=O)N=S(C)(=O)Cc4cc5nc(c4)OCCCOc4cc(F)ccc4-c4cc(ncc4F)N5)C(C)C)cc3)c2)c1 (mixture of isomers) [Compound 23] : 100 to 1000 nM
4) CCCNC(=O)Nc1cccc(S(=O)(=O)Nc2cccc([C@@H](CC(=O)O)NC(=O)Nc3ccc(NC(=O)NCCOCCOCCOCCC(=O)NCCCC[C@H](NC(=O)CCOCCOCCOCCNC(=O)Nc4ccc(NC(=O)N[C@H](CC(=O)O)c5cccc(NS(=O)(=O)c6cccc(NC(=O)NCCC)c6)c5)cc4)C(=O)NCCN(C)CCN(C)CCN(C)CC(=O)N[C@@H](CC(N)=O)C(=O)N4CCC[C@H]4C(=O)N[C@H](C(=O)N=[S@@](C)(=O)Cc4cc5cc(c4)O[C@@H](C)CCOc4cc(F)ccc4-c4nc(ncc4F)N5)C(C)C)cc3)c2)c1 (relative stereo) [Compound 28] : 100 to 1000 nM
5) CCCNC(=O)Nc1cccc(S(=O)(=O)Nc2cccc([C@@H](CC(=O)[O-])NC(=O)Nc3ccc(NC(=O)NCCOCCOCCOCCC(=O)N[C@@H](C)C(=O)N(C)[C@@H](C)C(=O)N[C@@H](CC(=O)N=[S@@](C)(=O)Cc4cc5cc(c4)OCCCCOc4cc(F)ccc4-c4nc(ncc4F)N5)C(N)=O)cc3)c2)c1.[Na+] [Compound 8] : > 1000 nM
6) CCCNC(=O)Nc1cccc(S(=O)(=O)Nc2cccc([C@@H](CC(=O)O)NC(=O)Nc3ccc(NC(=O)NCCOCCOCCOCCC(=O)N[C@@H](CC(=O)O)C(=O)N4CCC[C@H]4C(=O)N[C@H](C(=O)N=[S@](C)(=O)Cc4cc5nc(c4)O[C@H](C)CCCCOc4cc(F)ccc4-c4cc(ncc4F)N5)C(C)C)cc3)c2)c1 (relative stereo) [Compound 56] : 100 to 1000 nM
7) CCCNC(=O)Nc1cccc(S(=O)(=O)Nc2cccc([C@@H](CC(=O)O)NC(=O)Nc3ccc(NC(=O)N(C)CCN(C)CCN(C)CC(=O)N[C@@H](CC(N)=O)C(=O)N4CCC[C@H]4C(=O)N[C@H](C(=O)N=[S@@](C)(=O)Cc4cc5cc(c4)OCCCCOc4cc(F)ccc4-c4nc(ncc4F)N5)C(C)C)cc3)c2)c1 [Compound 5] : > 1000 nM
8) CCCNC(=O)Nc1cccc(S(=O)(=O)Nc2cccc([C@H](CC(=O)O)NC(=O)Nc3ccc(NC(=O)NCCOCCOCCOCCC(=O)N[C@@H](CCCCNC(=O)CCOCCOCCOCCNC(=O)Nc4ccc(NC(=O)N[C@H](CC(=O)O)c5cccc(NS(=O)(=O)c6cccc(NC(=O)NCCC)c6)c5)cc4)C(=O)NCCOCCOCCOCCC(=O)N[C@@H](CC(=O)O)C(=O)N4CCC[C@H]4C(=O)N[C@H](C(=O)N=S(C)(=O)Cc4cc5nc(c4)OCCCOc4cc(F)ccc4-c4cc(ncc4F)N5)C(C)C)cc3)c2)c1 (relative stereo) [Compound 32] : 100 to 1000 nM
9) CCCNC(=O)Nc1cccc(S(=O)(=O)Nc2cccc([C@@H](CC(=O)O)NC(=O)Nc3ccc(NC(=O)NCCOCCOCCOCCC(=O)NCCCC[C@H](NC(=O)CCOCCOCCOCCNC(=O)Nc4ccc(NC(=O)N[C@H](CC(=O)O)c5cccc(NS(=O)(=O)c6cccc(NC(=O)NCCC)c6)c5)cc4)C(=O)NCCOCCOCCOCCC(=O)N[C@@H](CC(=O)O)C(=O)N4CCC[C@H]4C(=O)N[C@H](C(=O)N=[S@](C)(=O)Cc4cc5cc(c4)O[C@H](C)CCOc4cc(F)ccc4-c4nc(ncc4F)N5)C(C)C)cc3)c2)c1 (relative stereo) [Compound 31] : 100 to 1000 nM
10) CCCNC(=O)Nc1cccc(S(=O)(=O)Nc2cccc([C@@H](CC(=O)O)NC(=O)Nc3ccc(NC(=O)NCCN(C)CCN(C)CCN(C)CC(=O)N[C@@H](CC(N)=O)C(=O)N4CCC[C@H]4C(=O)N[C@H](C(=O)N=S(C)(=O)Cc4cc5nc(c4)OCCCOc4cc(F)ccc4-c4cc(ncc4F)N5)C(C)C)cc3)c2)c1 (mixture of isomers) [Compound 22] : 100 to 1000 nM

====

A collection of compounds and their measured pIC50
Tested on: SUM149
PROTOCOL: Cytotoxicity in vitro (MTT) in presence/absence of elastase
Type: cell-based
RUN_CONDITIONS: SUM149, with (+) 10 nM neutrophil elastase, 72 h
pIC50: −log10 of the molar value.
RESULT_TYPE: pIC50

1) CCCNC(=O)Nc1cccc(S(=O)(=O)Nc2cccc([C@@H](CC(=O)O)NC(=O)Nc3ccc(NC(=O)NCCN(C)CCN(C)CCN(C)CC(=O)N[C@@H](CC(N)=O)C(=O)N4CCC[C@H]4C(=O)N[C@H](C(=O)N=[S@@](C)(=O)Cc4cc5cc(c4)OCCCCCNc4cc(ccc4F)-c4nc(ncc4F)N5)C(C)C)cc3)c2)c1 (relative stereo) : ≥ 9.00
2) CCCNC(=O)Nc1cccc(S(=O)(=O)Nc2cccc([C@@H](CC(=O)O)NC(=O)Nc3ccc(NC(=O)NCCOCCOCCOCCC(=O)N[C@@H](CC(=O)O)C(=O)N4CCC[C@H]4C(=O)N[C@H](C(=O)N=S(C)(=O)Cc4cccc(Nc5ncnc(-c6ccc(F)cc6OC)n5)c4)C(C)C)cc3)c2)c1 (relative stereo) : 7.00 to 7.96
3) CCCNC(=O)Nc1cccc(S(=O)(=O)Nc2cccc([C@@H](CC(=O)O)NC(=O)Nc3ccc(NC(=O)N(C)CCN(C)CCN(C)CC(=O)N[C@@H](CC(N)=O)C(=O)N4CCC[C@H]4C(=O)N[C@H](C(=O)N=S(C)(=O)Cc4cc5cc(c4)OC(C)CCOc4cc(F)ccc4-c4nc(ncc4F)N5)C(C)C)cc3)c2)c1 (relative stereo) : ≥ 9.00

====

Test system: HT29
PROTOCOL: Cytotoxicity in vitro (MTT) in presence/absence of elastase
Type: cell-based, human
RUN_CONDITIONS: HT29, without (−) neutrophil elastase, 72 h
Description: Cultivation of cells was performed according to standard procedures with the media recommended by the provider. The cells, in a total volume of 100 μL, were seeded in a 96-well plate with a white bottom (#3610). After a 24 h incubation period at 37° C. and […], the medium was exchanged by adding 90 μL fresh medium. […] The proliferation was detected using the MTT assay (ATCC). […] The formed dye was detected at 570 nm. […]
pIC50: −log10 of the molar value.
Listed here are compounds together with their documented pIC50.
RESULT_TYPE: pIC50

1. CCCNC(=O)Nc1cccc(S(=O)(=O)Nc2cccc([C@H](CC(=O)O)NC(=O)Nc3ccc(NC(=O)NCCOCCOCCOCCC(=O)NCCCC[C@H](NC(=O)CCOCCOCCOCCNC(=O)Nc4ccc(NC(=O)N[C@@H](CC(=O)O)c5cccc(NS(=O)(=O)c6cccc(NC(=O)NCCC)c6)c5)cc4)C(=O)NCCOCCOCCOCCC(=O)N[C@@H](CC(=O)O)C(=O)N4CCC[C@H]4C(=O)N[C@H](C(=O)N=[S@@](C)(=O)Cc4cc5cc(c4)OCCCCOc4cc(F)ccc4-c4nc(ncc4F)N5)C(C)C)cc3)c2)c1 : 7.00 to 7.96
2. CCCNC(=O)Nc1cccc(S(=O)(=O)Nc2cccc([C@@H](CC(=O)O)NC(=O)Nc3ccc(NC(=O)NCCN(C)CCN(C)CCN(C)CC(=O)N[C@@H](CC(N)=O)C(=O)N4CCC[C@H]4C(=O)N[C@H](C(=O)N=[S@](C)(=O)Cc4cc5cc(c4)OCCCCCNc4cc(ccc4F)-c4nc(ncc4F)N5)C(C)C)cc3)c2)c1 (relative stereo) : 7.00 to 7.96
3. CCCNC(=O)Nc1cccc(S(=O)(=O)Nc2cccc([C@H](CC(=O)O)NC(=O)Nc3ccc(NC(=O)NCCOCCOCCOCCC(=O)N[C@@H](CC(=O)O)C(=O)N4CCC[C@H]4C(=O)N[C@H](C(=O)N=[S@@](C)(=O)Cc4cc5cc(c4)OCCCCOc4cc(F)ccc4-c4nc(ncc4F)N5)C(C)C)cc3)c2)c1 : < 7.00
4. CCCNC(=O)Nc1cccc(S(=O)(=O)Nc2cccc([C@@H](CC(=O)O)NC(=O)Nc3ccc(NC(=O)NCCOCCOCCOCCC(=O)NCCCC[C@H](NC(=O)CCOCCOCCOCCNC(=O)Nc4ccc(NC(=O)N[C@H](CC(=O)O)c5cccc(NS(=O)(=O)c6cccc(NC(=O)NCCC)c6)c5)cc4)C(=O)NCCOCCOCCOCCC(=O)N[C@@H](CC(=O)O)C(=O)N4CCC[C@H]4C(=O)N[C@H](C(=O)N=[S@@](C)(=O)Cc4cc5cc(c4)OCCCCOc4cc(F)ccc4-c4nc(ncc4F)N5)C(C)C)cc3)c2)c1 : 7.00 to 7.96
5. CCCNC(=O)Nc1cccc(S(=O)(=O)Nc2cccc([C@@H](CC(=O)O)NC(=O)Nc3ccc(NC(=O)NCCOCCOCCOCCC(=O)N[C@@H](CC(=O)O)C(=O)N4CCC[C@H]4C(=O)N[C@H](C(=O)N=S(C)(=O)Cc4ccnc(Nc5cc(-c6ccc(F)cc6OC)c(F)cn5)c4)C(C)C)cc3)c2)c1 (relative stereo) : < 7.00
6. CCCNC(=O)Nc1cccc(S(=O)(=O)Nc2cccc([C@@H](CC(=O)O)NC(=O)Nc3ccc(NC(=O)N(C)CCN(C)CCN(C)CC(=O)N[C@@H](CC(N)=O)C(=O)N4CCC[C@H]4C(=O)N[C@H](C(=O)N=[S@@](C)(=O)Cc4ccnc(Nc5cc(-c6ccc(F)cc6OC)c(F)cn5)c4)C(C)C)cc3)c2)c1 : < 7.00
